system: KRAS patient-derived spheroids with HUVEC/MSC, viability; test: Anticancer human tumor 519858-162-T-J1-PDC patient-derived colon adenocarcinoma cell line growth inhibition [KRAS2]; conditions: curve of first compound; second compound 0.0316 µM;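 note: compound exposure lasted seven days before readout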
pIC50: −log10 of the molar value.
Provide the reported pIC50 of each item.

[[record]]
compound = "CC(C)NCC(C(=O)N1CCN(c2ncnc3c2C(C)CC3O)CC1)c1ccc(Cl)cc1 (stereo unspecified) + C=CC(=O)N1CCN(c2nc(OCC3CCCN3C)nc3c2CCN(c2cccc4cccc(C)c24)C3)CC1CC#N"
result_type = "pIC50"
result = "< 5.00"

[[record]]
compound = "Cn1ncnc1[C@H]1c2n[nH]c(=O)c3cc(F)cc(c23)N[C@@H]1c1ccc(F)cc1 + C=CC(=O)N1CCN(c2nc(OCC3CCCN3C)nc3c2CCN(c2cccc4cccc(C)c24)C3)CC1CC#N"
result_type = "pIC50"
result = "< 7.00"

[[record]]
compound = "CN(C)C/C=C/C(=O)Nc1cc2c(Nc3ccc(F)c(Cl)c3)ncnc2cc1O[C@H]1CCOC1 + C=CC(=O)N1CCN(c2nc(OCC3CCCN3C)nc3c2CCN(c2cccc4cccc(C)c24)C3)CC1CC#N"
result_type = "pIC50"
result = "< 7.00"


Quick one: give me pIC50 for each item below, same order please.
1. CC(C)n1nc(-c2ccc3oc(N)nc3c2)c2c(N)ncnc21 + C=CC(=O)N1CCN(c2nc(OCC3CCCN3C)nc3c2CCN(c2cccc4cccc(C)c24)C3)CC1CC#N
2. CC1COCCN1c1cc(-c2ccnn2C)c2ccnc(-c3ccn[nH]3)c2n1 (stereo unspecified) + C=CC(=O)N1CCN(c2nc(OCC3CCCN3C)nc3c2CCN(c2cccc4cccc(C)c24)C3)CC1CC#N
3. CC(=O)OC12COC1CC(O)C1(C)C(=O)C(O)C3=C(C)C(OC(=O)C(O)C(NC(=O)OC(C)(C)C)c4ccccc4)CC(O)(C(OC(=O)c4ccccc4)C21)C3(C)C (stereo unspecified) + C=CC(=O)N1CCN(c2nc(OCC3CCCN3C)nc3c2CCN(c2cccc4cccc(C)c24)C3)CC1CC#N
4. CCNC(=O)CC1N=C(c2ccc(Cl)cc2)c2cc(OC)ccc2-n2c(C)nnc21 (stereo unspecified) + C=CC(=O)N1CCN(c2nc(OCC3CCCN3C)nc3c2CCN(c2cccc4cccc(C)c24)C3)CC1CC#N
5. COc1cc2nccc(Oc3ccc(NC(=O)C4(C(=O)Nc5ccc(F)cc5)CC4)cc3)c2cc1OC + C=CC(=O)N1CCN(c2nc(OCC3CCCN3C)nc3c2CCN(c2cccc4cccc(C)c24)C3)CC1CC#N
6. O=C(c1cc(Cc2n[nH]c(=O)c3ccccc23)ccc1F)N1CCN(C(=O)C2CC2)CC1 + C=CC(=O)N1CCN(c2nc(OCC3CCCN3C)nc3c2CCN(c2cccc4cccc(C)c24)C3)CC1CC#N
7. CC1(C)CCC(CN2CCN(c3ccc(C(=O)NS(=O)(=O)c4ccc(NCC5CCOCC5)c([N+](=O)[O-])c4)c(Oc4cnc5[nH]ccc5c4)c3)CC2)=C(c2ccc(Cl)cc2)C1 + C=CC(=O)N1CCN(c2nc(OCC3CCCN3C)nc3c2CCN(c2cccc4cccc(C)c24)C3)CC1CC#N
8. CCN1CCN(Cc2ccc(Nc3ncc(F)c(-c4cc(F)c5nc(C)n(C(C)C)c5c4)n3)nc2)CC1 + C=CC(=O)N1CCN(c2nc(OCC3CCCN3C)nc3c2CCN(c2cccc4cccc(C)c24)C3)CC1CC#N

1. < 7.00
2. 5.62
3. < 5.50
4. 5.82
5. < 5.00
6. < 5.00
7. 5.06
8. < 6.00
